ASSAY_SYSTEM: C72 anti-DNA antibody
EXPERIMENT: Competitive inhibition of C72 binding to R38 (5100)
Set-up: species or system murine
EXPERIMENTAL_CONTEXT: concentration of competitive inhibitor giving 50% inhibition, ELISA
No end group written: not given here.
MEASURED_PROPERTY: 50% Inhibition of C72 binding to mouse R38 (5100) (µg/mL)

I = KEGYKVRLDLNITLAFRTTSK [Peptide 5110]
II = KEGYKVQSDLNITLEFRTSSQ [Peptide 5300]
III = KEGYKVELDLNITLEFRTTSK [Peptide 5106]
IV = KEGYKVRLDLNITLEF [Peptide 5101]
Enquiry: Using the recorded 50% Inhibition of C72 binding to mouse R38 (5100), list the entries above from smallest to largest. Arrange the labels as the request states and list them.
Return: I, III, IV, II

1 = KEGYKVRLALNITLEFRTTSK [Peptide 5109]
2 = KAGYKVRLALNITLAFRTTSK [Peptide 5108]
Enquiry: API: POST /compare with 1 and 2 ; response names the item with higher 50% Inhibition of C72 binding to mouse R38 (5100). Response format: the label of the selected entry.
Return: 2

The measured values listed here are drawn from patent US20100285146A1.
